pKi: −log10 of the molar value.
UniProt P00918 pKi, compiled from various sources.
Class rule met: pKi at least 8. Class rule not met: pKi below 8.

1) COc1cc(/C=C/C(=O)OCCc2ccc(O)cc2)ccc1O: rule not met
2) CCOc1ccc(S(=O)(=O)N2CCCC2)cc1-c1nnc2c(n1)c(C)nn2C: rule not met
3) CCOc1c(C(C)=O)c(=O)oc2ccc(Br)cc12: rule not met
4) NS(=O)(=O)c1ccc(CCNCc2ccc(O)cc2)cc1: rule not met
5) NS(=O)(=O)c1ccc(N2C(=O)[C@H]3CC=CC[C@H]3C2=O)cc1: rule met
6) O=C1C=C(c2ccccc2)S(=O)(=O)N1: rule not met
7) COc1cc(/C=C/C(=O)OCCCCO[N+](=O)[O-])ccc1OC(=O)CCc1ccc(S(N)(=O)=O)cc1: rule not met
8) NS(=O)(=O)c1ccc(CNC(=O)c2cccc(Cl)c2)cc1: rule met
9) COc1cc(C=O)ccc1OCc1cn(CCCOc2ccc3ccc(=O)oc3c2)nn1: rule not met
10) CC1=NNC(=O)/C1=N/Nc1cccc(S(N)(=O)=O)c1: rule not met
11) CCOc1ccc(S(=O)(=O)N2CCNCC2)cc1-c1nnc2c(n1)c(C)nn2-c1ccc(Cl)cc1: rule not met

----------
Literature survey of Ki (system: Carbonic anhydrase 2 (Homo sapiens, UniProt P00918)).
Measured attribute: Ki

1. C=CCOc1cc(=S)oc2ccccc12: > 100 µM
2. CCNC(=S)NNC(=O)c1ccccc1O: > 10 µM
3. CC(C)(C)n1c(=O)cc(-c2ccc3ccccc3c2)[s+]1[O-] (stereo not drawn): > 10 µM

----------
Several publications report pKi on Carbonic anhydrase 2 (Homo sapiens); those values are gathered here.
pKi: −log10 of the molar value.
Measured attribute: pKi

1) CC(=O)/C(=N\Nc1ccc(Br)cc1)C(=O)Nc1ccc(S(N)(=O)=O)cc1: 6.43
2) CSCC[C@H](NC(=O)c1ccc(Cl)c(S(N)(=O)=O)c1)C(=O)O: 6.39
3) NS(=O)(=O)c1ccc(N/C(S)=N\CCc2ccccc2)cc1: 7.38
4) NS(=O)(=O)c1ccc(/N=c2\scc(-c3ccc(Cl)cc3Cl)n2-c2ccccc2)cc1: 7.28
5) CC(=O)Nc1nnc(S)s1: 5.06
6) N/C(=N\S(=O)(=O)c1ccccc1SCc1cccc(C(F)(F)F)c1)NNc1nc(Cl)nc(Nc2cccc(S(N)(=O)=O)c2)n1: 8.03
7) CC(=O)Nc1ccc(S(=O)(=O)Nc2nnc(S(N)(=O)=O)s2)cc1I: 8.77
8) C[C@H](CCC(=O)OCCOc1ccc2nc(S(N)(=O)=O)sc2c1)[C@H]1CC[C@H]2[C@@H]3[C@@H](O)C[C@@H]4C[C@H](O)CC[C@]4(C)[C@H]3CC[C@]12C: 9.22
9) O=C(CCCCC(=O)Nc1ccc2c(c1)B(O)OC2)Nc1ccc2c(c1)B(O)OC2: 6.27
10) COC(=O)[C@H]1O[C@@H](S(=O)(=O)NCCc2ccc(S(N)(=O)=O)cc2)[C@H](OC(C)=O)[C@@H](OC(C)=O)[C@H]1OC(C)=O: 7.20

----------
We begin with Ki values for Carbonic anhydrase 2 (Homo sapiens), as collected from the published literature.
Measured attribute: Ki (nM)

1. CC1(C)OB(c2ccc(OS(N)(=O)=O)cc2)OC1(C)C: 32
2. CC(C)CC(C(=O)NO)N(Cc1ccccc1)S(=O)(=O)c1c(F)c(F)c(F)c(F)c1F (configuration not stated): 56
3. CC(C)[C@H](NC(=O)N(C)Cc1ccccn1)C(=O)N[C@@H](Cc1ccccc1)CC(O)[C@H](Cc1ccccc1)NC(=O)[C@@H](NC(=O)N(C)Cc1ccccn1)C(C)C (single isomer, unassigned): 17
4. NS(=O)(=O)c1ccc(NC(=O)Nc2c(F)c(F)c(F)c(F)c2F)c(F)c1: 18
5. C[C@H](CCC(=O)Nc1ccc(S(N)(=O)=O)cc1I)[C@H]1CC[C@H]2[C@@H]3CC[C@@H]4C[C@H](O)CC[C@]4(C)[C@H]3C[C@H](O)[C@]12C: 47

----------
pKi: −log10 of the molar value.
Field pKi: reported value for Carbonic anhydrase 2 (Homo sapiens); entries drawn from several documents.
Measured attribute: pKi

1. O=C(/C=C/c1ccco1)N[C@H]1C[C@H](C(=O)NO)N(S(=O)(=O)c2ccc(Cl)c(Cl)c2)C1: < 4.00
2. CCOC1Oc2ccccc2C(=O)/C1=C/Nc1ccc(S(=O)(=O)Nc2ccccn2)cc1 (centres undefined): < 5.00
3. CC(C(=O)NO)N(Cc1ccc([N+](=O)[O-])cc1)S(=O)(=O)C(F)(F)C(F)(F)C(F)(F)C(F)(F)F (centres undefined): < 6.70
4. COC(=O)Cc1c(C)c2ccc(OCC(=O)c3ccc(C)cc3)cc2oc1=O: < 5.00

----------
Assembled from different publications: pKi for Carbonic anhydrase 2 (Homo sapiens).
pKi: −log10 of the molar value.
Measured attribute: pKi

1. N#CCN1C(=O)c2ccccc2S1(=O)=O: < 4.30
2. COc1c(C(C)=O)c(=O)oc2ccc(Br)cc12: < 5.00
3. O=S1(=O)C=Cc2ccc(S(=O)(=O)NCc3ccccc3)cc21: < 6.00

----------
pKi: −log10 of the molar value.
Below are pKi measurements against Carbonic anhydrase 2 (Homo sapiens) drawn from the literature.
Measured attribute: pKi

1. NS(=O)(=O)c1nnc(NC(=O)CCNS(=O)(=O)c2ccc(I)cc2)s1: 8.92
2. CC(Sc1nc(-c2ccc(Cl)c(F)c2)c(C#N)c(=O)[nH]1)C(=O)Nc1ccc(S(N)(=O)=O)cc1 (stereo not given): 8.21
3. O=S(=O)(NO)C(F)(F)C(F)(F)C(F)(F)C(F)(F)F: 7.82
4. NS(=O)(=O)c1ccc(NCc2cc(=O)oc3cc(Cl)ccc23)c(Cl)c1: 7.35
5. COC(=O)CNc1nc(NCC(=O)OC)nc(Nc2ccc(S(N)(=O)=O)cc2)n1: 6.36
6. NS(=O)(=O)c1ccc(NC(=O)Cc2ccccc2)cc1: 6.97
7. CCCCCCN(CCCCCC)CC(=O)N(CCc1ccc(S(N)(=O)=O)cc1)Cc1ccc2ccccc2c1: 5.34
8. C[C@H](CCC(=O)NCCC(=O)Nc1nnc(S(N)(=O)=O)s1)[C@H]1CC[C@H]2[C@@H]3CC[C@@H]4C[C@H](O)CC[C@]4(C)[C@H]3CC[C@]12C: 8.68
9. Cc1nn(C)c2nnc(Nc3ccc(S(=O)(=O)NCCN)cc3)nc12: 7.21
10. CC(=O)N1N=C(c2cccc(OS(N)(=O)=O)c2)CC1c1ccc([N+](=O)[O-])cc1 (stereo not given): 6.87
11. NS(=O)(=O)c1ccc(/N=c2\scc(-c3cccs3)n2-c2ccccc2)cc1: 6.07
12. COc1ccc(O)c(/C=N/CCc2ccc(S(N)(=O)=O)cc2)c1: 7.90
13. O=c1c(Nc2ccc3c(c2)B(O)OC3)c(Nc2ccc3c(c2)B(O)OC3)c1=O: 5.64
14. O=C1Nc2ccccc2S(=O)(=O)N1: 6.82
15. NS(=O)(=O)c1cc(-c2noc(C3CC3)n2)cs1: 9.06
16. CCCC(CCC)C(=O)Nc1ccc(S(N)(=O)=O)cc1I: 7.37
17. O=C(O)C[C@H](O)C(=O)O: 2.73

----------
Here is a set of molecules with reported pKi for Carbonic anhydrase 2 (Homo sapiens), compiled from the literature.
pKi: −log10 of the molar value.
Measured attribute: pKi

1. CCn1cc(S(N)(=O)=O)c2cc(NC(=O)c3cc(-c4ccccc4OC)nc4ccc(OC)cc34)ccc21: < 4.00
2. Cn1cc(S(N)(=O)=O)c2cc(NC(=O)c3ccnc(N)c3)ccc21: < 4.00
3. O=C(NO)[C@H]1[C@@H](OCc2ccccc2)CCN1S(=O)(=O)c1ccc(Cl)c(Cl)c1: < 4.00
4. Cc1nn(-c2ccc(C(=O)O)cc2)c2c1c(=O)oc1ccccc12: < 5.00
5. CCn1cc(S(N)(=O)=O)c2cc(NC(=O)c3cc(-c4ccccc4)nc4ccc(OC)cc34)ccc21: < 4.00

----------
pKi: −log10 of the molar value.
Field pKi: reported value for Carbonic anhydrase 2 (Homo sapiens, UniProt P00918); entries drawn from several documents.
Measured attribute: pKi

1. CC1CCCC2(C1)NC(=O)N(CC(=O)Nc1ccc(S(N)(=O)=O)cc1)C2=O (centres undefined): 9.10
2. Cn1nc(S(N)(=O)=O)s/c1=N\C(=O)c1c(F)c(F)cc(F)c1F: 8.85
3. NS(=O)(=O)c1ccc(/N=c2\scc(-c3ccccc3)n2-c2ccccc2)cc1: 5.51
4. CC(=O)Nc1ccc(S(N)(=O)=O)cc1: 6.61
5. NS(=O)(=O)c1ccc(C(=O)NNC(=S)N[C@@H]2O[C@H](CO)[C@@H](O[C@@H]3O[C@H](CO)[C@H](O)[C@H](O)[C@H]3O)[C@H](O)[C@H]2O)cc1: 8.13
6. N#CCCN(CCc1ccccc1)CC(=O)N(CCC#N)CCc1ccc(S(N)(=O)=O)cc1: 9.15
7. NS(=O)(=O)c1ccc(-n2ncc(Cl)c(Cl)c2=O)cc1: 8.64
8. NS(=O)(=O)c1ccc(-c2ccc(C(=O)c3ccc(C(=O)O)cc3)cc2)cc1: 8.32
9. Nc1nc(-c2ccccc2O)cn2c(=O)n(-c3ccccc3)nc12: 4.72
10. C[C@H](CCC(=O)Nc1ccc(S(N)(=O)=O)cc1)[C@H]1CC[C@H]2[C@@H]3[C@@H](O)C[C@@H]4C[C@H](O)CC[C@]4(C)[C@H]3CC[C@]12C: 7.15
11. CCCC(C)C(=O)Nc1ccc(S(N)(=O)=O)cc1 (centres undefined): 6.66
12. NS(=O)(=O)c1ccc(NCc2cc(=O)oc3cc(Cl)ccc23)c(Br)c1: 7.48
13. Cc1cc(C)c2c(c1)S(=O)(=O)NC(=O)N2: 6.12
14. CC(C)CNCc1ccccc1S(=O)(=O)c1csc(S(N)(=O)=O)c1.Cl: 7.68
15. Cc1cccc2c1NC(=O)NS2(=O)=O: 6.84
16. NS(=O)(=O)c1ccc(CNC(=O)Cc2ccccc2F)cc1: 7.58
17. NS(=O)(=O)c1ccc(NS(=O)(=O)c2c(F)c(F)cc(F)c2F)c(Cl)c1: 7.21
18. NS(=O)(=O)c1ccc(N/C(S)=N/C(CS)C(=O)O)cc1 (centres undefined): 8.30
19. COc1ccc(O)c(CNCCc2ccc(S(N)(=O)=O)cc2)c1: 7.29
20. CN(C)CCOC(=O)c1cccc(S(=O)(=O)Nc2nnc(S(N)(=O)=O)s2)c1: 8.68
21. NS(=O)(=O)c1cc(C(=O)N[C@H](C(=O)O)C(O)c2ccccc2)ccc1Cl (some centres undefined): 7.21
22. O=S(=O)(NO)c1ccc(I)cc1: 7.89
23. NS(=O)(=O)c1ccc(CCN2C(=O)c3ccc(C(=O)Nc4ccccc4C(=O)O)cc3C2=O)cc1: 7.86
24. CCN(CC)Cc1cc(C(=O)c2csc(S(N)(=O)=O)c2)ccc1O.Cl: 7.73
25. NS(=O)(=O)c1ccc(-c2cn(S(=O)(=O)c3ccccc3)c3ccccc23)cc1: 9.17
26. CCCCCCCCCCCCCCON(CC(=O)NO)S(=O)(=O)c1ccc(OC)cc1: 7.01
27. Cc1ccc(COS(N)(=O)=O)cc1: 8.57
28. C[C@H](CCC(=O)Oc1ccc2nc(S(N)(=O)=O)sc2c1)[C@H]1CC[C@H]2[C@@H]3CC[C@@H]4C[C@H](O)CC[C@]4(C)[C@H]3C[C@H](O)[C@]12C: 8.32
